Recorded values, source PubChem BioAssay (NCI).

Test system: SF-268 CNS
Assay: NCI-60 one-dose screen, 48 h
Settings: 10 µM unless noted
Description: Cells are grown in 96 well plates and exposed to the test compound for 48 hours. Compounds are tested at a single concentration, which is 10^-5 M for most compounds. The reported endpoint is percent growth (GI% or GIPRCNT), where numbers from 0 - 100% represent growth inhibition, and numbers from -100% - 0 represent cell death. For example, a value of 40 represents 60% growth inhibition. A value of 0 means no net growth occurred over the course of the experiment. […]
This is part of a sample that, as a whole, favours compounds with a hit. Of some 83,000 tested, about 20% had one in any assay. Calls of active or inactive are those of the source. The calls were made as follows: active = growth percent below 10; inactive = the rest.
Outcome codes: active, inactive

INSERT INTO results (compound, qualitative_label) VALUES
  ('C/C(=C(\c1ccc(OCCCN(C)C)cc1)c1ccc(OC(=O)Cc2ccccc2)cc1)c1ccc(Cl)cc1', 'inactive'),
  ('COc1ccc(N/N=C/c2ccc3c(c2)Sc2ccccc2N3C)cc1', 'inactive'),
  ('N=C(N)c1ccc(-c2ccc(-c3ccc(Cl)cc3Cl)s2)nc1', 'inactive'),
  ('CC(=O)O[C@H]1CC[C@@]2(C)C(=CC[C@@H]3[C@@H]2CC[C@]2(C)C(Cl)=C(c4nc5ccc(Cl)cn5c4NC(C)(C)C)C[C@@H]32)C1', 'inactive'),
  ('CS(=O)(=O)Nc1cc(-c2ccc3ncnc(Nc4cccc(Cl)c4)c3c2)cnc1Cl', 'inactive'),
  ('CC1OC(C(=O)N2CCN(CCO)CC2)CC1COC1CCCCC1 (stereo unspecified)', 'inactive'),
  ('COc1cc(NC(=O)c2cncnc2Nc2ccc3c(ccn3Cc3cccc(F)c3)c2)cc(OC)c1', 'inactive'),
  ('C/C(=N\NC(=O)c1ccc(C(C)(C)C)cc1)c1ccc(O)cc1O', 'inactive'),
  ('CNC(=O)c1cc(Oc2ccc3nc(NC(=O)c4cc(C(F)(F)F)cc(C(F)(F)F)c4)sc3c2)ccn1', 'inactive'),
  ('N#Cc1c(-c2ccc(Cl)cc2)nc(NN=Cc2cccc(Cl)c2)nc1N1CCOCC1', 'inactive'),
  ('COc1ccc(Cn2cc3c(c2)-c2oncc2CC3)cc1', 'inactive'),
  ('CCOC(=O)C1=C(C)N(C)C(=O)N(C)C1c1ccccc1 (stereo unspecified)', 'inactive'),
  ('COc1ccc(-c2ccc(-c3ccc(C(=N)N)nc3)s2)cc1', 'active'),
  ('COC(=O)[C@@H](Cc1c[nH]c2ccccc12)NC[C@@H](O)CN1C(=O)/C(=C\c2cc(OC)c(OC)c(OC)c2)c2ccccc21', 'inactive'),
  ('CC1=C(C(=O)OCc2ccccc2)C(c2ccc3c(c2)OCO3)n2c(nc3ccccc32)N1 (stereo unspecified)', 'inactive'),
  ('COc1ccc(C(c2cc(OC)c(OC)c(OC)c2)n2cncn2)cc1O (stereo unspecified)', 'inactive');
